molecular target: human galectin-3 (hGal-3) (Homo sapiens, UniProt P17931); construct: P.K. and P.B. prepared recombinant full-length hGal-3 and contributed to the ITC experiments; made in house; test: Isothermal titration calorimetry (ITC) of sugar analogs with recombinant hGal-3; type: binding; settings: 27 °C, pH 7.2, 20 mM PBS buffer, recombinant hGal-3, errors 1–7%
Sequence (P17931 whole entry): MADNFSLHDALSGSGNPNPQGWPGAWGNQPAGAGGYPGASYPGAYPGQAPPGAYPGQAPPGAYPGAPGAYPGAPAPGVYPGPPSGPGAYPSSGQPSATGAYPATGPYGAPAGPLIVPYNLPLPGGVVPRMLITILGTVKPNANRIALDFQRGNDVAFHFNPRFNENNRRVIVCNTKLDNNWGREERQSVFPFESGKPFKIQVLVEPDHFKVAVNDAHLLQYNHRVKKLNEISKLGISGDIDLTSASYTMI
readout.type: Ka

[[record]]
structure_as_smiles = "CC(=O)N[C@H]1[C@H](Oc2ccc([N+](=O)[O-])cc2)O[C@H](CO)[C@@H](O[C@@H]2O[C@H](CO)[C@H](O)[C@H](O)[C@H]2O)[C@@H]1O"
assay_value = "3.0 10^4 M^−1"

[[record]]
structure_as_smiles = "C#CCO[C@@H]1O[C@H](CO)[C@@H](O[C@@H]2O[C@H](CO)[C@H](O)[C@H](O)[C@H]2O)[C@H](O)[C@H]1NC(C)=O"
assay_value = "2.6 10^4 M^−1"

[[record]]
structure_as_smiles = "C#CCO[C@@H]1O[C@H](CO)[C@@H](O[C@@H]2O[C@H](CO)[C@H](O)[C@H](OS(=O)(=O)O)[C@H]2O)[C@H](O)[C@H]1NC(C)=O"
assay_value = "6.8 10^4 M^−1"

[[record]]
structure_as_smiles = "O=[N+]([O-])c1ccc(O[C@@H]2O[C@H](CO)[C@@H](O[C@@H]3O[C@H](CO)[C@H](O)[C@H](OS(=O)(=O)O)[C@H]3O)[C@H](O)[C@H]2O)cc1"
assay_value = "4.9 10^4 M^−1"

[[record]]
structure_as_smiles = "C#CCO[C@@H]1O[C@H](CO)[C@@H](O[C@@H]2O[C@H](CO)[C@H](O)[C@H](O)[C@H]2O)[C@H](O)[C@H]1O"
assay_value = "2.1 10^4 M^−1"


----------
molecular target: human galectin-3 (hGal-3) (Homo sapiens); construct: P.K. and P.B. prepared recombinant full-length hGal-3 and contributed to the ITC experiments; assay: Isothermal titration calorimetry (ITC) of sugar analogs with recombinant hGal-3; details: 27 °C, pH 7.2, 20 mM PBS buffer, recombinant hGal-3, Kd calculated from 1/Ka, errors 1–7%
pKd: −log10 of the molar value.
This section presents molecules with their documented pKd values.
readout.type: pKd

[[record]]
molecule = "C#CCOC1OC(CO)C(OC2OC(CO)C(O)C(OC3(C(=O)O)CC(O)C(NC(C)=O)C(C(O)C(O)CO)O3)C2O)C(O)C1NC(C)=O (stereo not drawn)"
assay_value = 4.20

[[record]]
molecule = "CO[C@@H]1O[C@H](CO)[C@@H](O[C@@H]2O[C@H](CO)[C@H](O)[C@H](O)[C@H]2O)[C@H](O)[C@H]1O [Compound 1, reference compound]"
assay_value = 4.04

[[record]]
molecule = "CC(=O)N[C@H]1[C@H](Oc2ccc([N+](=O)[O-])cc2)O[C@H](CO)[C@@H](O[C@@H]2O[C@H](CO)[C@H](O)[C@H](OS(=O)(=O)O)[C@H]2O)[C@@H]1O"
assay_value = 4.65


----------
Biological target: human galectin-3 (hGal-3) (Homo sapiens, UniProt P17931)
Construct: P.K. and P.B. prepared recombinant full-length hGal-3 and contributed to the ITC experiments; made in house
Assay: Isothermal titration calorimetry (ITC) of sugar analogs with recombinant hGal-3
Type: binding
Details: 27 °C, relative to methyl lactoside 1 = 1.0
Method: The Kd value of PNP LacNAc (20) was similar to that of its propargyl Lac analog 11. ITC experiments were performed using a VP-ITC instrument from GE. […] The Kd (dissociation constant) was calculated from 1/Ka. The quantity c = Ka Mt (0), where Mt (0) is the initial macromolecule concentration, is of importance in titration microcalorimetry. […]
readout.type: Relative Potencies

[[record]]
compound = "O=[N+]([O-])c1ccc(O[C@@H]2O[C@H](CO)[C@@H](O[C@@H]3O[C@H](CO)[C@H](O)[C@H](O)[C@H]3O)[C@H](O)[C@H]2O)cc1"
assay_value = 1.8

[[record]]
compound = "C#CCO[C@@H]1O[C@H](CO)[C@@H](O[C@@H]2O[C@H](CO)[C@H](O)[C@H](O)[C@H]2O)[C@H](O)[C@H]1NC(C)=O"
assay_value = 2.4

[[record]]
compound = "C#CCOC1OC(CO)C(OC2OC(CO)C(O)C(OC3(C(=O)O)CC(O)C(NC(C)=O)C(C(O)C(O)CO)O3)C2O)C(O)C1NC(C)=O (centres unmarked)"
assay_value = 1.5

[[record]]
compound = "CO[C@@H]1O[C@H](CO)[C@@H](O[C@@H]2O[C@H](CO)[C@H](O)[C@H](O)[C@H]2O)[C@H](O)[C@H]1O [Compound 1, reference compound]"
assay_value = 1.0

[[record]]
compound = "CC(=O)N[C@H]1[C@H](Oc2ccc([N+](=O)[O-])cc2)O[C@H](CO)[C@@H](O[C@@H]2O[C@H](CO)[C@H](O)[C@H](O)[C@H]2O)[C@@H]1O"
assay_value = 2.7

[[record]]
compound = "C#CCO[C@@H]1O[C@H](CO)[C@@H](O[C@@H]2O[C@H](CO)[C@H](O)[C@H](OS(=O)(=O)O)[C@H]2O)[C@H](O)[C@H]1O"
assay_value = 2.5

[[record]]
compound = "C#CCO[C@@H]1O[C@H](CO)[C@@H](O[C@@H]2O[C@H](CO)[C@H](O)[C@H](O)[C@H]2O)[C@H](O)[C@H]1O"
assay_value = 1.9

[[record]]
compound = "CC(=O)N[C@H]1[C@H](Oc2ccc([N+](=O)[O-])cc2)O[C@H](CO)[C@@H](O[C@@H]2O[C@H](CO)[C@H](O)[C@H](OS(=O)(=O)O)[C@H]2O)[C@@H]1O"
assay_value = 4.1

[[record]]
compound = "C#CCO[C@@H]1O[C@H](CO)[C@@H](O[C@@H]2O[C@H](CO)[C@H](O)[C@H](OCC(=O)O)[C@H]2O)[C@H](O)[C@H]1NC(C)=O"
assay_value = 1.7

[[record]]
compound = "C#CCO[C@@H]1O[C@H](CO)[C@@H](O[C@@H]2O[C@H](CO)[C@H](O)[C@H](OS(=O)(=O)O)[C@H]2O)[C@H](O)[C@H]1NC(C)=O"
assay_value = 6.2

[[record]]
compound = "O=[N+]([O-])c1ccc(O[C@@H]2O[C@H](CO)[C@@H](O[C@@H]3O[C@H](CO)[C@H](O)[C@H](OS(=O)(=O)O)[C@H]3O)[C@H](O)[C@H]2O)cc1"
assay_value = 4.5


----------
molecular target: human galectin-3 (hGal-3) (Homo sapiens, UniProt P17931); construct: P.K. and P.B. prepared recombinant full-length hGal-3 and contributed to the ITC experiments; made in house; experiment: Isothermal titration calorimetry (ITC) of sugar analogs with recombinant hGal-3; assay type: binding; settings: 27 °C, pH 7.2, 20 mM PBS buffer, recombinant hGal-3, Kd calculated from 1/Ka, errors 1–7%
This section presents molecules with their documented Kd values.
readout.type: Kd

[[record]]
structure_as_smiles = "C#CCO[C@@H]1O[C@H](CO)[C@@H](O[C@@H]2O[C@H](CO)[C@H](O)[C@H](O)[C@H]2O)[C@H](O)[C@H]1O"
assay_value = "47.6 µM"

[[record]]
structure_as_smiles = "C#CCO[C@@H]1O[C@H](CO)[C@@H](O[C@@H]2O[C@H](CO)[C@H](O)[C@H](OCC(=O)O)[C@H]2O)[C@H](O)[C@H]1NC(C)=O"
assay_value = "52.6 µM"

[[record]]
structure_as_smiles = "C#CCO[C@@H]1O[C@H](CO)[C@@H](O[C@@H]2O[C@H](CO)[C@H](O)[C@H](O)[C@H]2O)[C@H](O)[C@H]1NC(C)=O"
assay_value = "38 µM"


----------
biological target: human galectin-3 (hGal-3) (Homo sapiens, UniProt P17931); construct: P.K. and P.B. prepared recombinant full-length hGal-3 and contributed to the ITC experiments; made in house; assay: Isothermal titration calorimetry (ITC) of sugar analogs with recombinant hGal-3; type: binding; details: 27 °C, pH 7.2, 20 mM PBS buffer, recombinant hGal-3, errors 1–7%
readout.type: Ka

[[record]]
compound = "C#CCOC1OC(CO)C(OC2OC(CO)C(O)C(OC3(C(=O)O)CC(O)C(NC(C)=O)C(C(O)C(O)CO)O3)C2O)C(O)C1NC(C)=O (centres unmarked)"
assay_value = "1.6 10^4 M^−1"

[[record]]
compound = "CC(=O)N[C@H]1[C@H](Oc2ccc([N+](=O)[O-])cc2)O[C@H](CO)[C@@H](O[C@@H]2O[C@H](CO)[C@H](O)[C@H](OS(=O)(=O)O)[C@H]2O)[C@@H]1O"
assay_value = "4.5 10^4 M^−1"

[[record]]
compound = "CO[C@@H]1O[C@H](CO)[C@@H](O[C@@H]2O[C@H](CO)[C@H](O)[C@H](O)[C@H]2O)[C@H](O)[C@H]1O [Compound 1, reference compound]"
assay_value = "1.1 10^4 M^−1"

[[record]]
compound = "C#CCO[C@@H]1O[C@H](CO)[C@@H](O[C@@H]2O[C@H](CO)[C@H](O)[C@H](OS(=O)(=O)O)[C@H]2O)[C@H](O)[C@H]1O"
assay_value = "2.7 10^4 M^−1"

[[record]]
compound = "C#CCO[C@@H]1O[C@H](CO)[C@@H](O[C@@H]2O[C@H](CO)[C@H](O)[C@H](OCC(=O)O)[C@H]2O)[C@H](O)[C@H]1NC(C)=O"
assay_value = "1.9 10^4 M^−1"


Recorded values, source paper PMC9962200.
